Just for reference, ChEMBL document CHEMBL1961873 is where these values come from.

# reported inhibition; entries follow
Biological target: Non-receptor tyrosine-protein kinase TNK1 (Homo sapiens) (UniProt Q13470);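 also: reported values are mean inhibition figures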
Sequence (whole entry): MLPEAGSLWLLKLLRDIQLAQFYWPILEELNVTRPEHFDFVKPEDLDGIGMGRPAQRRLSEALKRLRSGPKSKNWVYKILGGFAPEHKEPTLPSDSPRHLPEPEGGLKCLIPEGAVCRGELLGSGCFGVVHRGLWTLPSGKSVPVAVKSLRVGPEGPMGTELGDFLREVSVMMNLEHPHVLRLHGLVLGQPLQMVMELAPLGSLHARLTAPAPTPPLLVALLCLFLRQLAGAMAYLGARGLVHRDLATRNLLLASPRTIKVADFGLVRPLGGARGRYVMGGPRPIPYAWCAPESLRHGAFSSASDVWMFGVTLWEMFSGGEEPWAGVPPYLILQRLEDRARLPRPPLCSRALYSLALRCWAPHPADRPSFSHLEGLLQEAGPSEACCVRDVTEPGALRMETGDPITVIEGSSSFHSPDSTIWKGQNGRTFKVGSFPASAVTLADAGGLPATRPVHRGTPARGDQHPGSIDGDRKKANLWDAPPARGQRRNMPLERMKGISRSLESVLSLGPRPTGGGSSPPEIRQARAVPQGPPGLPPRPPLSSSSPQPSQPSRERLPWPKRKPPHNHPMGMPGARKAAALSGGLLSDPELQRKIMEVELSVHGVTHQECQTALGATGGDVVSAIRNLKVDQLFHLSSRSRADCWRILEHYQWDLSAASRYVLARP
Settings: at 0.1 µM
QUANTITY MEASURED: inhibition (%)

compound_smiles=CC1(C)CC(n2cnc(-c3ccc(F)cc3)c2-c2ccnc(N)n2)CC(C)(C)N1 experimental_system="Non-receptor tyrosine-protein kinase TNK1 (Homo sapiens) (UniProt Q13470)" unit_tag=% reported_measurement=-0.43
compound_smiles=COc1ccc(Nc2ncc(-c3ccccc3)o2)cc1OC experimental_system="Non-receptor tyrosine-protein kinase TNK1 (Homo sapiens) (UniProt Q13470)" unit_tag=% reported_measurement=5.16
compound_smiles=CS(=O)(=O)Nc1ccc(-c2ccc3c(NC(=O)C4CC4)n[nH]c3c2)cc1 experimental_system="Non-receptor tyrosine-protein kinase TNK1 (Homo sapiens) (UniProt Q13470)" unit_tag=% reported_measurement=2.68
compound_smiles=Cc1cc(O)cc(C)c1/C=C/c1cncc(C(N)=O)c1 experimental_system="Non-receptor tyrosine-protein kinase TNK1 (Homo sapiens) (UniProt Q13470)" unit_tag=% reported_measurement=4.23
compound_smiles=CNC(=O)c1sc(-n2cnc3cc(OC)c(OC)cc32)cc1OCc1ccccc1C(F)(F)F experimental_system="Non-receptor tyrosine-protein kinase TNK1 (Homo sapiens) (UniProt Q13470)" unit_tag=% reported_measurement=4.58

----------
target: Serine/threonine-protein kinase PAK 1 (Homo sapiens) (UniProt Q13153); conditions: at 1 µM;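 also: reported values are mean percent inhibition of PAK1 activity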
Sequence (Q13153 whole entry): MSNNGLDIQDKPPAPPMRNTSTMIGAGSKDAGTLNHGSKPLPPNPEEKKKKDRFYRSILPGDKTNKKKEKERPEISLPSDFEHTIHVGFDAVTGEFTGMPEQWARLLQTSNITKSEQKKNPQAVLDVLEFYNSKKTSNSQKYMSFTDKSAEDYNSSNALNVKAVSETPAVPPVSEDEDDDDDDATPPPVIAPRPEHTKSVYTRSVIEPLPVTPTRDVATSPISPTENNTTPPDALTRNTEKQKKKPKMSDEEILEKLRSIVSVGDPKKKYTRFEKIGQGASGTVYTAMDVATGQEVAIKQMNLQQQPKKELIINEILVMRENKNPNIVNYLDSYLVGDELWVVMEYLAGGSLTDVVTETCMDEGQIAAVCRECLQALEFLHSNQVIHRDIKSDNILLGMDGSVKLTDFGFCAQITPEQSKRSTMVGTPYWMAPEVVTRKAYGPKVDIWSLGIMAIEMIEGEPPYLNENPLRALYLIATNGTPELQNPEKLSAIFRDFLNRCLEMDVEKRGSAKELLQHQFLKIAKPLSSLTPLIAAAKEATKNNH
QUANTITY MEASURED: inhibition (%)

molecule="CC1=C(C(=O)Nc2ccc3[nH]nc(C)c3c2)C(c2ccc(C(F)(F)F)cc2)CC(=O)N1 (stereo unspecified)" experimental_system="Serine/threonine-protein kinase PAK 1 (Homo sapiens) (UniProt Q13153)" reported_measurement=3.72
molecule=CCCNc1cccc(-n2ncc3c(N/N=C/c4ccncc4)ncnc32)c1 experimental_system="Serine/threonine-protein kinase PAK 1 (Homo sapiens) (UniProt Q13153)" reported_measurement=-0.69
molecule=COc1ccccc1-c1cc(/C=C2\C(=O)Nc3ncc(Br)cc32)cc(Br)c1O experimental_system="Serine/threonine-protein kinase PAK 1 (Homo sapiens) (UniProt Q13153)" reported_measurement=6.23
molecule=NS(=O)(=O)c1ccc(N/N=C2\C(=O)Nc3cccc(CCc4ccncc4)c32)cc1 experimental_system="Serine/threonine-protein kinase PAK 1 (Homo sapiens) (UniProt Q13153)" reported_measurement=2.13
molecule=COc1c(C(N)=O)cc(-c2ccc(Cl)cc2)cc1-c1ccc(S(N)(=O)=O)cc1 experimental_system="Serine/threonine-protein kinase PAK 1 (Homo sapiens) (UniProt Q13153)" reported_measurement=12.1
molecule=NC(=O)c1ccc2c(-c3ccnc(NCCCO)n3)c(-c3ccc(F)cc3)nn2c1 experimental_system="Serine/threonine-protein kinase PAK 1 (Homo sapiens) (UniProt Q13153)" reported_measurement=6.41
molecule=Cc1nnc(-c2cccc(-c3ccc(C(=O)NCC4CC4)cc3)c2)o1 experimental_system="Serine/threonine-protein kinase PAK 1 (Homo sapiens) (UniProt Q13153)" reported_measurement=10.5
molecule=CN(C)CCNC(=O)Nc1ccc(N(C)c2ccnc(Nc3ccc(CS(C)(=O)=O)cc3)n2)cc1 experimental_system="Serine/threonine-protein kinase PAK 1 (Homo sapiens) (UniProt Q13153)" reported_measurement=9.49
molecule=COc1ccc(-c2nn3ncccc3c2-c2ccnc(Nc3ccc(F)c(F)c3)n2)cc1 experimental_system="Serine/threonine-protein kinase PAK 1 (Homo sapiens) (UniProt Q13153)" reported_measurement=5.49
molecule=FC(F)(F)CNc1nccc(-c2cnn3ncccc23)n1 experimental_system="Serine/threonine-protein kinase PAK 1 (Homo sapiens) (UniProt Q13153)" reported_measurement=6.19
molecule=Cc1c2ccc(N(C)c3ccnc(Nc4cccc(S(N)(=O)=O)c4)n3)cc2nn1C experimental_system="Serine/threonine-protein kinase PAK 1 (Homo sapiens) (UniProt Q13153)" reported_measurement=5.47
molecule=COc1cc(Nc2ncc(-c3ccccc3)o2)cc(OC)c1 experimental_system="Serine/threonine-protein kinase PAK 1 (Homo sapiens) (UniProt Q13153)" reported_measurement=6.69
molecule=NS(=O)(=O)c1ccc(N/N=C2\C(=O)Nc3ccc(C(=O)NCc4ccncc4)cc32)cc1 experimental_system="Serine/threonine-protein kinase PAK 1 (Homo sapiens) (UniProt Q13153)" reported_measurement=4.68
molecule=COC(=O)Nc1nc2cc(Oc3ccc(NC(=O)Nc4ccccc4)cc3)ccc2[nH]1 experimental_system="Serine/threonine-protein kinase PAK 1 (Homo sapiens) (UniProt Q13153)" reported_measurement=3.46
molecule=CC1(C)CC(n2cnc(-c3ccc(F)cc3)c2-c2ccnc(N)n2)CC(C)(C)N1 experimental_system="Serine/threonine-protein kinase PAK 1 (Homo sapiens) (UniProt Q13153)" reported_measurement=2.11
molecule=CS(=O)(=O)CCNCc1ccc(-c2ccc3ncnc(Nc4ccc(OCc5ccccc5)cc4)c3c2)o1 experimental_system="Serine/threonine-protein kinase PAK 1 (Homo sapiens) (UniProt Q13153)" reported_measurement=5.65
